studyTarget: GPBAR1 (Homo sapiens, UniProt Q8TDU6)
Construct: expressed in transfected cells; host or cells: HEK293T
Sequence (Q8TDU6 1-330): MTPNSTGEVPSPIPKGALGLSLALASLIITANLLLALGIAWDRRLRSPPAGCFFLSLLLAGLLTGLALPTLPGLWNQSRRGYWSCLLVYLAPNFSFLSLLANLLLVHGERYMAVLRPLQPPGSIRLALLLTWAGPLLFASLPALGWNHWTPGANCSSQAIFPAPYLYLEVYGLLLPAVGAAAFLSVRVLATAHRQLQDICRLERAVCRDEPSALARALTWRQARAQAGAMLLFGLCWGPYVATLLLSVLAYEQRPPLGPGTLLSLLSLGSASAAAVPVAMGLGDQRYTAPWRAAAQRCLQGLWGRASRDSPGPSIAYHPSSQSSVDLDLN
assay: Luciferase reporter (transactivation) assay on HEK293T cells transfected with GPBAR1
Type: cell-based
measurementParameters: HEK-293T, relative to TLCA (10 μM) as 100%, mean ± SD, na = not active, read-out: GPBAR1 eff % (10 μM)
propertyLabel: Emax at 10 µM (%)
Only the number, expressed in %, is required.

[
  {
    "smilesRepresentation": "C[C@]12C[C@H](Cc3ccc(O)cc3)C3=C4CCC(=O)C=C4CC[C@H]3[C@@H]1CCC2=O",
    "Emax at 10 µM (%)": 9
  },
  {
    "smilesRepresentation": "C[C@]12C[C@H](c3ccc(-c4cccc(C(=O)O)c4)cc3)C3=C4CCC(=O)C=C4CC[C@H]3[C@@H]1CCC2=O",
    "Emax at 10 µM (%)": 20.4
  },
  {
    "smilesRepresentation": "C[C@]12C[C@H](c3ccc(C4CC4)cc3)C3=C4CCC(=O)C=C4CC[C@H]3[C@@H]1CCC2=O",
    "Emax at 10 µM (%)": 16.5
  }
]

Req: Need Emax at 10 µM of C[C@]12C[C@H](c3ccc(-c4ccccc4)cc3)C3=C4CCC(=O)C=C4CC[C@H]3[C@@H]1CCC2=O , thanks.
Resp: 44.8

Req: Fill in the blank: the reported Emax at 10 µM of CN(C)c1ccc([C@H]2C[C@]3(C)C(=O)CC[C@H]3[C@@H]3CCC4=CC(=O)CCC4=C32)cc1 is ____.
Resp: 21.7

Req: # get_value(readout='Emax at 10 µM', item= C[C@]12C[C@H](c3ccccc3)C3=C4CCC(=O)C=C4CC[C@H]3[C@@H]1CCC2=O )
Resp: 35
